- assayed.target: WT IDH1 (Homo sapiens, UniProt O75874)
- Construct: made in house; host or cells: Escherichia coli BL21(DE3) pLyS
- Sequence (O75874 whole entry): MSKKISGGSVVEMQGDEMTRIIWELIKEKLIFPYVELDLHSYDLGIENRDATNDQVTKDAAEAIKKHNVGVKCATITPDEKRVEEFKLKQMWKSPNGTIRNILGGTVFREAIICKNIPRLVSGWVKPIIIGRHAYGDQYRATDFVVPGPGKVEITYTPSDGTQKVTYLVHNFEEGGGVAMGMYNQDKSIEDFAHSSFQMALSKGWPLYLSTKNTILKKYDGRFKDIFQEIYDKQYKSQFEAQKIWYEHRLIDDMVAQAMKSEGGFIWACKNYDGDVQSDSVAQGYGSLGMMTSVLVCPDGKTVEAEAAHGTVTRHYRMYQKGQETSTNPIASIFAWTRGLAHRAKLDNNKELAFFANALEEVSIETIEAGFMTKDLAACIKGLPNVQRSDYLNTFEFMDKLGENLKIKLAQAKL
- assay.procedure: Absorbance assay, WT activity in the presence of equimolar DL-isocitrate (inhibition)
- Assay type: biochemical
- condition.set: […] isocitrate and […] test compound, 75 μM NADP+, 2.0 nM WT IDH1
measured.property: activity [%] (%-substrate conversion after 20 min incubation)
# answer = value followed by unit

Known results for compounds:
WT IDH1 (Homo sapiens, UniProt O75874) / activity [%] (%-substrate conversion after 20 min incubation) / `O=C(O)C(=O)Cc1c[nH]c2ccccc12` : value?
88 ± 2%

WT IDH1 (Homo sapiens, UniProt O75874) / activity [%] (%-substrate conversion after 20 min incubation) / COC(=O)CC(C)C(=O)OC (racemic) [DL-dimethyl 2-methylsuccinate] : value?
103 ± 1%

Further cases:
WT IDH1 (Homo sapiens, UniProt O75874) / activity [%] (%-substrate conversion after 20 min incubation) / O=C(O)CCC(=O)C(=O)O [2OG, 2-oxoglutarate, reference compound] : value?
93 ± 1%

WT IDH1 (Homo sapiens, UniProt O75874) / activity [%] (%-substrate conversion after 20 min incubation) / `NC(=O)C(=O)O` : value?
105 ± 2%

WT IDH1 (Homo sapiens, UniProt O75874) / activity [%] (%-substrate conversion after 20 min incubation) / CC(CC(=O)O)C(=O)C(=O)O (stereo not shown) : value?
94±1%

WT IDH1 (Homo sapiens, UniProt O75874) / activity [%] (%-substrate conversion after 20 min incubation) / O=C(O)C(=O)C1CC1C(=O)O (mixture of isomers) : value?
96±1%

WT IDH1 (Homo sapiens, UniProt O75874) / activity [%] (%-substrate conversion after 20 min incubation) / `O=C(O)C(=O)C(=O)O` : value?
102 ± 4%

WT IDH1 (Homo sapiens, UniProt O75874) / activity [%] (%-substrate conversion after 20 min incubation) / O=C(O)CC(Cc1ccccc1)C(=O)O (racemic) : value?
103 ± 4%

WT IDH1 (Homo sapiens, UniProt O75874) / activity [%] (%-substrate conversion after 20 min incubation) / CC(C)(C)CCC(CC(=O)C(=O)O)C(=O)O (racemic) : value?
95±7%

WT IDH1 (Homo sapiens, UniProt O75874) / activity [%] (%-substrate conversion after 20 min incubation) / `N[C@@H](CCCC(=O)O)C(=O)O` : value?
108 ± 4%

----------
- assayed.target: R132H IDH1 (Homo sapiens, UniProt O75874, R132H)
- Sequence (O75874 whole entry R132H): as the sequence (O75874 whole entry) above, with R132H counted along it
- assay.procedure: Absorbance assay, variant activity in the presence of equimolar 2OG (inhibition screen)
- Type: biochemical
- Parameters: made in house; host or cells: Escherichia coli BL21(DE3) pLyS
- condition.set: […] 2OG and […] test compound, 0.03 μM R132H IDH1, 50 μM NADPH
Counter-ions that a name gives are not always drawn.
Item-by-item account of activity [%] (%-substrate conversion after 20 min incubation)
# answer = value followed by unit

Value lookup for activity [%] (%-substrate conversion after 20 min incubation); key = `COC(=O)CCC(=O)C(=O)OC`
95 ± 3%

Value lookup for activity [%] (%-substrate conversion after 20 min incubation); key = CCCC(CC(=O)C(=O)O)C(=O)O (racemic)
101 ± 7%

Value lookup for activity [%] (%-substrate conversion after 20 min incubation); key = CC(CC(=O)O)C(=O)C(=O)O (centres unmarked)
391 ± 20%

Value lookup for activity [%] (%-substrate conversion after 20 min incubation); key = O=C(O)CC(Cc1ccccc1)C(=O)O (racemic)
93 ± 3%

Value lookup for activity [%] (%-substrate conversion after 20 min incubation); key = CCOC(=O)/C=C/C(=O)O [mono-ethyl fumarate]
94 ± 8%

----------
- assayed.target: R172K IDH2 (Homo sapiens, UniProt P48735, R172K)
- Construct: made in house; host or cells: Sf21 insect cells (cell pellets prepared at Evotec)
- assay.procedure: Absorbance assay, IC50 determination
- Assay type: biochemical
measured.property: IC50

Value lookup for IC50; key = O=C(O)CNC(=O)C(=O)O [NOG, N-oxalylglycine, reference compound]
~161 µM

----------
- assayed.target: WT IDH1 (Homo sapiens, UniProt O75874)
- Construct: made in house; host or cells: Escherichia coli BL21(DE3) pLyS
- assay.procedure: Absorbance assay, WT activity in the presence of equimolar DL-isocitrate (inhibition)
- Assay type: biochemical
- condition.set: […] isocitrate and […] test compound, 75 μM NADP+, 2.0 nM WT IDH1
Item-by-item account of activity [%] (%-substrate conversion after 20 min incubation)
API: value field is a number in %; no unit string.

Known results for compounds:
Value lookup for activity [%] (%-substrate conversion after 20 min incubation); key = O=C(O)CC(S)C(=O)O (stereo not drawn) [2-mercaptosuccinic acid]
109

Value lookup for activity [%] (%-substrate conversion after 20 min incubation); key = O=C(O)CCC(O)C(=O)O (racemic) [DL-2-hydroglutaric acid]
94

Value lookup for activity [%] (%-substrate conversion after 20 min incubation); key = CCCCC(CC(=O)C(=O)O)C(=O)O (racemic) [compound 16]
102

Value lookup for activity [%] (%-substrate conversion after 20 min incubation); key = CC1(C)c2ccccc2-c2ccc(CC(CC(=O)O)C(=O)C(=O)O)cc21 (racemic) [compound 11]
98

Value lookup for activity [%] (%-substrate conversion after 20 min incubation); key = CC(C)CC(=O)C(=O)O [α-ketoisocaproic acid]
102

Value lookup for activity [%] (%-substrate conversion after 20 min incubation); key = C[C@@](O)(CC(=O)O)C(=O)O [(R)-citramalic acid]
101

Value lookup for activity [%] (%-substrate conversion after 20 min incubation); key = CC(C(=O)O)C(C)C(=O)O (stereo not drawn) [1,2-dimethylsuccinic acid]
103

Value lookup for activity [%] (%-substrate conversion after 20 min incubation); key = O=C(O)C(=O)c1ccc(C(=O)O)cc1 [compound 30]
101

Value lookup for activity [%] (%-substrate conversion after 20 min incubation); key = O=C(O)[C@@H]1CCCN1 [L-proline]
102

Value lookup for activity [%] (%-substrate conversion after 20 min incubation); key = CC(C)(C)CCC(CC(=O)O)C(=O)C(=O)O (racemic) [compound 5]
95

Further cases:
Value lookup for activity [%] (%-substrate conversion after 20 min incubation); key = CC(O)C(=O)O (racemic) [DL-lactic acid]
105

Value lookup for activity [%] (%-substrate conversion after 20 min incubation); key = O=C(O)CC(=O)CC(=O)O [3-oxoglutaric acid]
103

Value lookup for activity [%] (%-substrate conversion after 20 min incubation); key = O=C(O)CC(Cc1ccc(F)cc1)C(=O)C(=O)O (racemic) [compound 8]
96

Value lookup for activity [%] (%-substrate conversion after 20 min incubation); key = CC(=O)C(=O)O [pyruvic acid]
111

Value lookup for activity [%] (%-substrate conversion after 20 min incubation); key = CCCC(CC(=O)O)C(=O)C(=O)O (racemic) [compound 3]
105

----------
- assayed.target: R172K IDH2 (Homo sapiens, UniProt P48735, R172K)
- Construct: made in house; host or cells: Sf21 insect cells (cell pellets prepared at Evotec)
- Sequence (P48735 40-452 R172K): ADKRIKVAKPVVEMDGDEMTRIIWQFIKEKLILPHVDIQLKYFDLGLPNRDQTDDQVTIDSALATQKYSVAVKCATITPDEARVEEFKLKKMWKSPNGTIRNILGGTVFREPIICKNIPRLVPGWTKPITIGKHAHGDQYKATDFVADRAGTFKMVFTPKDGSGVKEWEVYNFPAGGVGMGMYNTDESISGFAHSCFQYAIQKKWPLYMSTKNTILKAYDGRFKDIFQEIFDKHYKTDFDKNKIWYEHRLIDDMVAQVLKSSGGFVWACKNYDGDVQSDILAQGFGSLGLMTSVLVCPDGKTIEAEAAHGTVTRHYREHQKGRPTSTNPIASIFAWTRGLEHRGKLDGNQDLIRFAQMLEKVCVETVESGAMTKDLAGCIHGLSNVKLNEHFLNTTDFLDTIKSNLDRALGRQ
- assay.procedure: Absorbance assay, variant activity in the presence of equimolar 2OG (inhibition screen)
- Assay type: biochemical
- condition.set: 1.0 mM 2OG and 1.0 mM test compound, 0.03 μM R172K IDH2, 50 μM NADPH
Item-by-item account of activity [%] (%-substrate conversion after 20 min incubation)
API: value field is a number in %; no unit string.

Known results for molecules:
Value lookup for activity [%] (%-substrate conversion after 20 min incubation); key = O=C(O)C(=O)CC(Cc1ccccc1)C(=O)O (racemic) [compound 19]
102

Value lookup for activity [%] (%-substrate conversion after 20 min incubation); key = O=C(O)C(=O)Cc1c[nH]c2ccccc12 [indole-3-pyruvic acid]
87

Value lookup for activity [%] (%-substrate conversion after 20 min incubation); key = O=C(O)C(=O)C1CC1C(=O)O (mixture of isomers) [compound 21]
110

Value lookup for activity [%] (%-substrate conversion after 20 min incubation); key = O=C(O)CC(=O)C(=O)O [oxaloacetic acid]
96

Value lookup for activity [%] (%-substrate conversion after 20 min incubation); key = C=C(CC(=O)O)C(=O)O [itaconic acid]
95

Further cases:
Value lookup for activity [%] (%-substrate conversion after 20 min incubation); key = O=C(O)C(=O)CCc1ccccc1 [2-oxo-4-phenylbutanoic acid]
96

Value lookup for activity [%] (%-substrate conversion after 20 min incubation); key = CC(CC(=O)O)C(=O)C(=O)O (stereo not drawn) [compound 1, 3-methyl-2OG]
151

Value lookup for activity [%] (%-substrate conversion after 20 min incubation); key = CC(C)(CC(=O)C(=O)O)C(=O)O [compound 13, 4,4-dimethyl-2OG]
106

Value lookup for activity [%] (%-substrate conversion after 20 min incubation); key = O=C(O)C(=O)c1ccc(C(=O)O)cc1 [compound 30]
110
